# test.system: LONP1 (NM_004793.4) (Homo sapiens (Human), UniProt P36776)
# Sequence (P36776 68-959): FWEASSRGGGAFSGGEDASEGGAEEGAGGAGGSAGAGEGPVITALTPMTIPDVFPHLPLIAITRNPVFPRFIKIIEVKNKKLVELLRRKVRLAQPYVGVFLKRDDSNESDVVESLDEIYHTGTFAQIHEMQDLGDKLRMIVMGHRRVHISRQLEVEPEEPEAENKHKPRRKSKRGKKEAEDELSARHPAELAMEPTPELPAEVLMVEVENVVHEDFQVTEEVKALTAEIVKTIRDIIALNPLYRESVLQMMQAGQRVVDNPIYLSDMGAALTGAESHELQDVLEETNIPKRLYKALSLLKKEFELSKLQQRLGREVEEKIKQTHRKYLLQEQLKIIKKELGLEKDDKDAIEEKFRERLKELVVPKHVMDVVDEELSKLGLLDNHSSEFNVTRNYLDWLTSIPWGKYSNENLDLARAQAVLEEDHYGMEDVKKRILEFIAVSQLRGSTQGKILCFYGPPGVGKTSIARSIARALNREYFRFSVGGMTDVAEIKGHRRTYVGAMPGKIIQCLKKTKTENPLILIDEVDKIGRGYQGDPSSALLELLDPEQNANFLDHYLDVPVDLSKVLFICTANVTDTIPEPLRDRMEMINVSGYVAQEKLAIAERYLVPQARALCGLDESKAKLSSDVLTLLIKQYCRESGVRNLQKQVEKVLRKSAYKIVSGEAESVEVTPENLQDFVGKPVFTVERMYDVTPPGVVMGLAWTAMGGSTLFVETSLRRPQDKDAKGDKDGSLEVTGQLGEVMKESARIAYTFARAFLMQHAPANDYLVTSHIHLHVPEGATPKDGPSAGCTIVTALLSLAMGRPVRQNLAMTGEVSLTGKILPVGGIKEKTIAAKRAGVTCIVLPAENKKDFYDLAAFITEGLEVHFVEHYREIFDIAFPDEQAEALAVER
property.label: IC50

Field: IC50 (LONP1 (NM_004793.4) (Homo sapiens (Human), UniProt P36776)). Entry: "CC(C)NC(=O)N[C@H](CC(=O)N1CCOCC1)C(=O)N[C@@H](CCCc1ccccc1)B(O)O"
50 to 500 nM

Field: IC50 (LONP1 (NM_004793.4) (Homo sapiens (Human), UniProt P36776)). Entry: "O=C(N[C@@H](CCCc1ccccc1)B(O)O)[C@@H](CC(=O)N1CCOCC1)NS(=O)(=O)c1ccccc1Cl"
50 to 500 nM

Field: IC50 (LONP1 (NM_004793.4) (Homo sapiens (Human), UniProt P36776)). Entry: "O=C(N[C@@H](CCCc1ccccc1)B(O)O)[C@@H](CC(=O)N1CCOCC1)NS(=O)(=O)c1cccc(Cl)c1"
< 50 nM
